Consider the following compounds; for each one, report its selectivity ratio.
test: Selectivity index, ratio of CC50 for human MT4 cells to EC50 for HIV-1 3B wild type reverse transcriptase infected in human MT4 cells; type: toxicity, cell-based; conditions: read-out: Ratio CC50/EC50
Number only, please.

Look up selectivity ratio for this compound: "COc1cccc(COc2ccnc(Nc3ccc(C#N)cc3)n2)c1"
4720

Quick one: selectivity ratio of "N#Cc1ccc(Nc2nccc(OCc3ccccc3Br)n2)cc1" ?
3610

Record request: selectivity ratio value, item "N#Cc1ccc(Nc2nccc(OCc3cccc(C(F)(F)F)c3)n2)cc1"
193

Quick one: selectivity ratio of "N#Cc1ccc(Nc2nccc(OCc3ccccc3F)n2)cc1" ?
26000

selectivity ratio lookup needed for "N#Cc1ccc(Nc2nccc(OCc3ccc(Br)cc3F)n2)cc1" , thanks.
641

Suppose we examine the compound "COc1ccc(COc2ccnc(Nc3ccc(C#N)cc3)n2)cc1" ; what selectivity ratio value has been reported?
102

Quick one: selectivity ratio for "COc1ccccc1COc1ccnc(Nc2ccc(C#N)cc2)n1" ?
356

Sample "COc1cc(COc2ccnc(Nc3ccc(C#N)cc3)n2)cc(OC)c1" — what was its selectivity ratio?
4940

Item under review: "N#Cc1ccc(Nc2nccc(OCc3ccc(F)cc3)n2)cc1" . Reported selectivity ratio?
88

Could you tell me which selectivity ratio is on file for "N#Cc1ccc(Nc2nccc(OCc3ccccc3)n2)cc1" ?
591

What value of measured selectivity ratio is listed for "Cc1cc(C)nc(Sc2ccnc(Nc3ccc(C#N)cc3)n2)n1" ?
8

Can you look up the measured selectivity ratio of "N#Cc1ccc(Nc2nccc(OCc3ccccc3Cl)n2)cc1" for me?
4420
